We begin with a simple list: items and their reported MFI at 1 nM.
target: T1, cyno PD-1, full length, on CHO-K1 cells (cyno monkey, UniProt B0LAJ3 25-288); assay: flow cytometry on CHO-K1-cPD-1 cells
T1 construct: also called CHO-K1-cPD-1; cPD-1
T1 sequence (B0LAJ3 entry or part of it limits assumed): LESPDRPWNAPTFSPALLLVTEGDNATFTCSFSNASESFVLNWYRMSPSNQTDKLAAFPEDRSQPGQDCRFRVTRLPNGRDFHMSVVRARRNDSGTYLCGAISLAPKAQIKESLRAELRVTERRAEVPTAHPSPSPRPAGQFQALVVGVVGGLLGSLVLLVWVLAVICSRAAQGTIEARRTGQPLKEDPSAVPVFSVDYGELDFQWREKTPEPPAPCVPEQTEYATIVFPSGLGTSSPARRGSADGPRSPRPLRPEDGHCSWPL
The reply should be a number in MFI, with the unit left off.

Consider the reported MFI at 1 nM for these binders:
[[record]]
binder = "chimeric anti-PD-1 antibody 21G8F11 (antibody, V domains shown) VH: EVQLLESGGGLAQPGGSLRLSCAASGFSFNTYLMHWVRQAPGKGLEWVSAISGGGGNTYYADSVKGRFTISRDNSKNTLYLQMNSLRAEDTAVYYCAKENRIPVAPFDYWGQGTLVTVSS VL: DIQMTQSPSTLSASVGDRVTITCRASQSISTWLAWYQQKPGKAPKLLIYKASSLESGVPSRFSGSGSGTEFTLTISSLQPDDLATYYCQQYNSFSWTFGQGTKVEIK"
reported_metric = "MFI at 1 nM"
quantitative_readout = 156

[[record]]
binder = "chimeric anti-PD-1 antibody 76G5B3 (antibody, V domains shown) VH: QVQLVESGGGVVQPGRSLRLSCAASGFTFSDYGFHWVRQAPGKGLEWVAVIWYDGSNEYYTDSVKGRFTISRDNSKNTLYLQMNSLRAEDTAMYFCVVNPFDYWGQGTLVTVSS VL: DIQMTQSPSSLSAFVGDRVTITCRASQGINHYLAWYQQKPGKAPNLLILAASTLLSGVPSRFGGRGSGTDFTLIISSLQPEDVATYYCQKYDSAPYTFGQGTKLEIK"
reported_metric = "MFI at 1 nM"
quantitative_readout = 132

[[record]]
binder = "chimeric anti-PD-1 antibody 223G6B5 (antibody, V domains shown) VH: QVQLQESGPGLVKPSETLSLTCAVSGHSIRGSYFWGWIRQPPGRGLEWIGSIYHSGSTYTNPSLKSRATISVDTSKNQFSLKLNSVTAADTAVYYCARDLDIATTRDYWGQGTLVTVSS VL: DIQLTQSPSFLSASVGDRVTIICRASQGINNYLAWYQQKPGKAPKLLIYAASTLQSGVPSRFSGSGSGTEFTLTISSLQPEDFATYYCQQLDSYPRTFGQGTKVEIKR"
reported_metric = "MFI at 1 nM"
quantitative_readout = 475


Now consider the entry below.
Kindly note the recorded MFI at 1 nM for chimeric anti-PD-1 antibody 226C3A7 (antibody, V domains shown) VH: QVQLQQSGPGLVNPSQTLSLTCAISGDSVSSNSGAWNWIRQSPSRGLEWLGRTYYRSKWYNDYGISVQSRITINPDTSKNHFSLQLNSVTPEDTAVYYCARDPYYYGSGSYFDYWGQGTLVTVSS VL: EIVMTQSPATLSVSPGERVTLSCRASLSVNSNLAWYQQKPGQAPRLLIYDTSTRATGVPARFSGSGSGTEFTLTISSLQSEDFAVYYCQQYHYWPLTFGGGTKVEIK , which is 5.8
